METHOD DESCRIPTION: Probe fluorescence ratio response to stearic acid relative to ADIFAB2
Assay type: binding
STUDY CONDITIONS: response relative to ADIFAB2
Source text: In an alternate preferred embodiment, the protein is rI-FABP that has Ala substituted for Leu at position 72 (rI-FABP-L72A) with the resulting probe named ADIFAB2. […] ADIFAB2 also has an altered spectral response, making it especially useful for measurements of FFAu in blood samples (Apple et al, Clinical Proteomics, (2004) 1:41-44, U.S. patent application Ser. No. 10/670,958). […] The baseline value for this ratio, measured in the absence of analyte, is designated R0. […]
MEASURED ATTRIBUTE: DR/DR SA
In your answer, state the number alone without any accompanying words.

Report DR/DR SA, nothing else, for this molecule: 72V 73L 74W (protein, listed as Rattus norvegicus, PEPTIDE (1)...(131) wild-type rat intestinal fatty acid binding protein) AFDGTWKVDRNENYEKFMEKMGINVVKRKLGAHDNLKLTITQEGNKFTVKESSNFRNIDVVFELGVDFAYSVLWGTELTGTWTMEGNKLVGKFKRVDNGKELIAVREISGNELIQTYTYEGVEAKRIFKKE 0.348

Report DR/DR SA, nothing else, for this molecule: 73F 72A (protein, listed as Rattus norvegicus, PEPTIDE (1)...(131) wild-type rat intestinal fatty acid binding protein) AFDGTWKVDRNENYEKFMEKMGINVVKRKLGAHDNLKLTITQEGNKFTVKESSNFRNIDVVFELGVDFAYSAFDGTELTGTWTMEGNKLVGKFKRVDNGKELIAVREISGNELIQTYTYEGVEAKRIFKKE 0.399

Report DR/DR SA, nothing else, for this molecule: 21F 78I 102F 72A (protein, listed as Rattus norvegicus, PEPTIDE (1)...(131) wild-type rat intestinal fatty acid binding protein) AFDGTWKVDRNENYEKFMEKFGINVVKRKLGAHDNLKLTITQEGNKFTVKESSNFRNIDVVFELGVDFAYSAADGTEITGTWTMEGNKLVGKFKRVDNGKEFIAVREISGNELIQTYTYEGVEAKRIFKKE 2.367
